Tested on: MCF7 (Mammary Gland, Adenocarcinoma)
assay: Cell viability analysis, breast cancer MCF7
Format: cell-based, human
experimental_setup: Homo sapiens, MCF7; drug 10 μM, 72 hours, WST-1, OD450 nm; read-out: cell viability (survival rate), MCF7
Where a name gives a salt, the structure may show the parent alone.
Decision: viability at 10 µM beneath 70% gives Fulfilled; viability at 10 µM meeting or exceeding 70% gives Not fulfilled.

[[record]]
compound = "COC(=O)C1=CO[C@@H](O[C@@H]2O[C@H](CO)[C@@H](O)[C@H](O)[C@H]2O)[C@@H]2C(CO)=CC[C@H]12 [Geniposide]"
label_value = "Not fulfilled"

[[record]]
compound = "C=C(NC(=O)C(=C)NC(=O)c1csc(C2=N[C@@H]3c4csc(n4)[C@H]4NC(=O)c5csc(n5)[C@H]([C@](C)(O)[C@@H](C)O)NC(=O)[C@H]5CSC(=N5)/C(=C/C)NC(=O)[C@H]([C@@H](C)O)NC(=O)c5csc(n5)[C@]3(CC2)NC(=O)[C@H](C)NC(=O)C(=C)NC(=O)[C@H](C)NC(=O)[C@H]([C@@H](C)CC)N[C@@H]2C=Cc3c([C@H](C)O)cc(nc3[C@H]2O)C(=O)O[C@@H]4C)n1)C(N)=O [Thiostrepton]"
label_value = "Fulfilled"

[[record]]
compound = "Cc1cc(C(C)(C)C)cc(C)c1CC1=NCCN1 [Xylometazoline HCl]"
label_value = "Not fulfilled"

[[record]]
compound = "CCOC(=O)CCC(=O)O[C@H]1[C@H](O[C@@H]2[C@@H](C)[C@H](O[C@H]3C[C@@](C)(OC)[C@@H](O)[C@H](C)O3)[C@@H](C)C(=O)O[C@H](CC)[C@@](C)(O)[C@H](O)[C@@H](C)C(=O)[C@H](C)C[C@@]2(C)O)O[C@H](C)C[C@@H]1N(C)C [Erythromycin Ethylsuccinate]"
label_value = "Not fulfilled"


* * *

System: MDA-MB-231 (Mammary Gland, Adenocarcinoma)
assay: Cell viability analysis, breast cancer MDA-MB-231
Format: cell-based, human
experimental_setup: Homo sapiens, MDA-MB-231, 72 h, read-out: The results of antibiotic drug inhibiting cancer cell lines (cell viability analysis), MDA-MB231
Structures can show the parent of a compound that is named as a salt.
Known viability at 10 µM of a selection of compounds
readout: viability at 10 µM (%)

[[record]]
compound = "CC(=O)NC[C@H]1CN(c2ccc(N3CCOCC3)c(F)c2)C(=O)O1 [Linezolid (Zyvox), Linezolid]"
test_system = "MDA-MB-231 (Mammary Gland, Adenocarcinoma)"
readout = "viability at 10 µM"
measured_value = 96.2

[[record]]
compound = "CC(NC(C)(C)C)C(=O)c1cccc(Cl)c1 (stereo not shown)"
test_system = "MDA-MB-231 (Mammary Gland, Adenocarcinoma)"
readout = "viability at 10 µM"
measured_value = 80.3

[[record]]
compound = "CO[C@H]1/C=C/O[C@@]2(C)Oc3c(C)c(O)c4c(O)c(c5c(nc6cc(C)ccn65)c4c3C2=O)NC(=O)/C(C)=C\\C=C\\[C@H](C)[C@H](O)[C@@H](C)[C@@H](O)[C@@H](C)[C@H](OC(C)=O)[C@@H]1C"
test_system = "MDA-MB-231 (Mammary Gland, Adenocarcinoma)"
readout = "viability at 10 µM"
measured_value = 98.7

[[record]]
compound = "CO[C@H]1/C=C/O[C@@]2(C)Oc3c(C)c(O)c4c(O)c(c(/C=N/N5CCN(C6CCCC6)CC5)c(O)c4c3C2=O)NC(=O)/C(C)=C\\C=C\\[C@H](C)[C@H](O)[C@@H](C)[C@@H](O)[C@@H](C)[C@H](OC(C)=O)[C@@H]1C"
test_system = "MDA-MB-231 (Mammary Gland, Adenocarcinoma)"
readout = "viability at 10 µM"
measured_value = 93.3

[[record]]
compound = "CC1(C)S[C@@H]2[C@H](NC(=O)Cc3ccccc3)C(=O)N2[C@H]1C(=O)O [Benzylpenicillin sodium]"
test_system = "MDA-MB-231 (Mammary Gland, Adenocarcinoma)"
readout = "viability at 10 µM"
measured_value = 94.7

[[record]]
compound = "CN(C)CCC[C@@]1(c2ccc(F)cc2)OCc2cc(C#N)ccc21 [Escitalopram oxalate]"
test_system = "MDA-MB-231 (Mammary Gland, Adenocarcinoma)"
readout = "viability at 10 µM"
measured_value = 111

[[record]]
compound = "Cc1cc(C(C)(C)C)cc(C)c1CC1=NCCN1 [Xylometazoline HCl]"
test_system = "MDA-MB-231 (Mammary Gland, Adenocarcinoma)"
readout = "viability at 10 µM"
measured_value = 96.3

[[record]]
compound = "CC(C)c1nc(CN(C)C(=O)N[C@H](C(=O)N[C@@H](Cc2ccccc2)C[C@H](O)[C@H](Cc2ccccc2)NC(=O)OCc2cncs2)C(C)C)cs1"
test_system = "MDA-MB-231 (Mammary Gland, Adenocarcinoma)"
readout = "viability at 10 µM"
measured_value = 102

[[record]]
compound = "Cc1noc(NS(=O)(=O)c2ccc(N)cc2)c1C"
test_system = "MDA-MB-231 (Mammary Gland, Adenocarcinoma)"
readout = "viability at 10 µM"
measured_value = 104

[[record]]
compound = "CN(C)[C@@H]1C(O)=C(C(N)=O)C(=O)[C@@]2(O)C(O)=C3C(=O)c4c(O)ccc(Cl)c4[C@@](C)(O)[C@H]3C[C@@H]12 [Chlortetracycline HCl]"
test_system = "MDA-MB-231 (Mammary Gland, Adenocarcinoma)"
readout = "viability at 10 µM"
measured_value = 83.2

[[record]]
compound = "Clc1ccc(C(Cn2ccnc2)OCc2ccsc2Cl)c(Cl)c1 (stereo not shown)"
test_system = "MDA-MB-231 (Mammary Gland, Adenocarcinoma)"
readout = "viability at 10 µM"
measured_value = 103

[[record]]
compound = "CN(C)C(=O)C(CCN1CCC(O)(c2ccc(Cl)cc2)CC1)(c1ccccc1)c1ccccc1 [Loperamide hydrochloride]"
test_system = "MDA-MB-231 (Mammary Gland, Adenocarcinoma)"
readout = "viability at 10 µM"
measured_value = 72.5

[[record]]
compound = "CCOc1ccc(NC(C)=O)cc1"
test_system = "MDA-MB-231 (Mammary Gland, Adenocarcinoma)"
readout = "viability at 10 µM"
measured_value = 91.7


* * *

Tested on: PC3 (p53−) (Prostate Adenocarcinoma)
assay: Cell viability analysis, prostate cancer PC3
Assay type: cell-based, human
experimental_setup: Homo sapiens, 72 h, read-out: cell viability (survival rate), PC3, drug 10 μM, 72 hours, WST-1, OD450 nm
Where a name gives a salt, the structure may show the parent alone.
readout: viability at 10 µM (%)

[[record]]
compound = "Clc1ccc(CCC(Cn2ccnc2)Sc2c(Cl)cccc2Cl)cc1 (stereo not shown) [Butoconazole nitrate]"
measured_value = 57.1

[[record]]
compound = "CN(C)[C@@H]1C(O)=C(C(=O)NCN2CCCC2)C(=O)[C@@]2(O)C(O)=C3C(=O)c4c(O)cccc4[C@@](C)(O)[C@H]3C[C@@H]12"
measured_value = 105

[[record]]
compound = "CCn1cc(C(=O)O)c(=O)c2cc(F)c(N3CCNCC3)cc21"
measured_value = 72.2

[[record]]
compound = "CO/N=C(\\C(=O)N[C@@H]1C(=O)N2C(C(=O)O)=C(CSC(=O)c3ccco3)CS[C@H]12)c1csc(N)n1 [Ceftiofur hydrochloride]"
measured_value = 73.1

[[record]]
compound = "Cc1cccc(C)c1OCC(=O)N[C@@H](Cc1ccccc1)[C@@H](O)C[C@H](Cc1ccccc1)NC(=O)[C@H](C(C)C)N1CCCNC1=O"
measured_value = 68

[[record]]
compound = "Cc1ccnc(NS(=O)(=O)c2ccc(N)cc2)n1"
measured_value = 78.4

[[record]]
compound = "O=C(NC(Cc1cc(=O)[nH]c2ccccc12)C(=O)O)c1ccc(Cl)cc1 (stereo not shown) [Rebamipide]"
measured_value = 82.2

[[record]]
compound = "C[C@]12C=CC(=O)C=C1CC[C@@H]1[C@@H]2[C@@H](O)C[C@@]2(C)[C@H]1CC[C@]2(O)C(=O)CO [Prednisolone (Hydroretrocortine), Prednisolone]"
measured_value = 83.3

[[record]]
compound = "CN(C)c1cc(NC(=O)CNC(C)(C)C)c(O)c2c1C[C@H]1C[C@H]3[C@H](N(C)C)C(O)=C(C(N)=O)C(=O)[C@@]3(O)C(O)=C1C2=O"
measured_value = 83

[[record]]
compound = "COc1cc(NS(=O)(=O)c2ccc(N)cc2)nc(OC)n1"
measured_value = 94

[[record]]
compound = "CCc1cc(C(N)=S)ccn1 [Ethionamide]"
measured_value = 85.3

[[record]]
compound = "CC(=O)NC[C@H]1CN(c2ccc(N3CCOCC3)c(F)c2)C(=O)O1 [Linezolid (Zyvox), Linezolid]"
measured_value = 67

[[record]]
compound = "NCCS(=O)(=O)O"
measured_value = 61.1

[[record]]
compound = "NC(CO)(CO)CO"
measured_value = 97

[[record]]
compound = "CN1[C@@H]2CC[C@H]1C[C@@H](OC(c1ccccc1)c1ccccc1)C2 [Benztropine mesylate]"
measured_value = 75.3

[[record]]
compound = "CO[C@H]1/C=C/O[C@@]2(C)Oc3c(C)c(O)c4c(O)c(c5c(nc6cc(C)ccn65)c4c3C2=O)NC(=O)/C(C)=C\\C=C\\[C@H](C)[C@H](O)[C@@H](C)[C@@H](O)[C@@H](C)[C@H](OC(C)=O)[C@@H]1C"
measured_value = 67.1

[[record]]
compound = "CO[C@H]1/C=C/O[C@@]2(C)Oc3c(C)c(O)c4c(c3C2=O)C2=NC3(CCN(CC(C)C)CC3)NC2=C(NC(=O)/C(C)=C\\C=C\\[C@H](C)[C@H](O)[C@@H](C)[C@@H](O)[C@@H](C)[C@H](OC(C)=O)[C@@H]1C)C4=O"
measured_value = 72.6

[[record]]
compound = "Clc1cccc(Cl)c1N=C1NCCN1 [Clonidine hydrochloride (Catapres), Clonidine hydrochloride]"
measured_value = 40.7

[[record]]
compound = "Cc1cc2nc3c(=O)[nH]c(=O)nc-3n(C[C@H](O)[C@H](O)[C@H](O)CO)c2cc1C"
measured_value = 79.4

[[record]]
compound = "Cc1onc(-c2c(Cl)cccc2Cl)c1C(=O)N[C@@H]1C(=O)N2[C@@H]1SC(C)(C)[C@@H]2C(=O)O [Dicloxacillin Sodium]"
measured_value = 71.1

[[record]]
compound = "COc1cc2nc(N3CCN(C(=O)C4CCCO4)CC3)nc(N)c2cc1OC (stereo not shown) [Terazos in HCl (Hytrin), Terazosin HCl]"
measured_value = 40.5

[[record]]
compound = "C[C@@H](c1ncncc1F)[C@](O)(Cn1cncn1)c1ccc(F)cc1F"
measured_value = 97

[[record]]
compound = "CN(C)CCC[C@@]1(c2ccc(F)cc2)OCc2cc(C#N)ccc21 [Escitalopram oxalate]"
measured_value = 79.5

[[record]]
compound = "Clc1ccccc1C(c1ccccc1)(c1ccccc1)n1ccnc1"
measured_value = 69.3

[[record]]
compound = "CCC(C)(C)c1ccc(CC(C)CN2C[C@@H](C)O[C@@H](C)C2)cc1 (stereo partly shown) [Amorolfine Hydrochloride]"
measured_value = 104

[[record]]
compound = "CC(C)NCC(O)c1ccc(O)c(O)c1 (stereo not shown) [Isoprenaline hydrochloride]"
measured_value = 73.6

[[record]]
compound = "Cc1cccn2c(=O)c(-c3nnn[nH]3)cnc12"
measured_value = 53.8

[[record]]
compound = "C[C@@H]1CCC[C@H](C)N1NC(=O)c1ccc(Cl)c(S(N)(=O)=O)c1 [Clopamide]"
measured_value = 40.3


Where do these numbers come from? They come from patent US10105357B2.
